Target: Tenebrio molitor EcR (TmEcR-DEF) (Tenebrio molitor)
Sequence (O02035 194-491): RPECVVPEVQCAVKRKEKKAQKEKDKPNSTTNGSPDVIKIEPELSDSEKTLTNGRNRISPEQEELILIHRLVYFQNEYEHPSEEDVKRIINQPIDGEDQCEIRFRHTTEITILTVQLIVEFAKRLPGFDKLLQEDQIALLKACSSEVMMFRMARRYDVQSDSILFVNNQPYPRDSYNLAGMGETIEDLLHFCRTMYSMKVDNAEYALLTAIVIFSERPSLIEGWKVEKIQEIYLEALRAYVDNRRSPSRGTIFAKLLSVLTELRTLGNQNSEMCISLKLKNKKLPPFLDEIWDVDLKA
Sequence (P28704 285-520 partner): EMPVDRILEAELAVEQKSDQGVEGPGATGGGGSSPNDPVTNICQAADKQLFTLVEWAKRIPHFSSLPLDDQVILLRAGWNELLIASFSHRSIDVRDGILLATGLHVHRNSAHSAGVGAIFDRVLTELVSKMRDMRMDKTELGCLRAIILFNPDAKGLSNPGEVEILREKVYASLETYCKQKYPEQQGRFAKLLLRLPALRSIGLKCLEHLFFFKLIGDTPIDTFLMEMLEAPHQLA
Assay: Two-hybrid gene switch assay, TmEcR-DEF in NIH3T3 cells
Conditions: NIH3T3, 48 h, read-out: rel max FI (20E), TM
Can you tell me Emax for the items I'm about to list?
Reply numerically in %, unit not repeated.

Dear colleague, I am looking for the recorded Emax of the following compound: CO[C@H]1C[C@@]2(C)[C@@H](C[C@H]1O)C(=O)C=C1[C@@H]2CC[C@]2(C)[C@@H]([C@@](C)(O)[C@@H](CCC(C)(C)O)OC)CC[C@@]12O [20E-2,22-dimethyl ether]
24

Using the record for CO[C@H]1C[C@@]2(C)[C@@H](C[C@H]1O)C(=O)C=C1[C@@H]2CC[C@]2(C)[C@@H]([C@@](C)(O)[C@H](O)CCC(C)(C)O)CC[C@@]12O [20E-2-methyl ether] , report its Emax.
7

Using the record for CO[C@@H]1C[C@H]2C(=O)C=C3[C@H](CC[C@]4(C)[C@@H]([C@@](C)(O)[C@H](O)CCC(C)(C)O)CC[C@@]34O)[C@@]2(C)C[C@@H]1O [20E-3-methyl ether] , report its Emax.
114

// lookup Emax for CO[C@@H]1C[C@H]2C(=O)C=C3[C@H](CC[C@]4(C)[C@@H]([C@@](C)(O)[C@@H](CCC(C)(C)O)OC)CC[C@@]34O)[C@@]2(C)C[C@@H]1O [20E-3,22-dimethyl ether]
137

Quick one: Emax for CO[C@H](CCC(C)(C)O)[C@](C)(O)C1CC[C@@]2(O)C3=CC(=O)C4C[C@@H](O)[C@@H](O)CC4(C)C3CCC12C (some centres unmarked) [20E-22-methyl ether] ?
158

* * *

Molecular target: wild-type CfEcR (GAL4-CfEcR-DEF with VP16-RXR-USP chimera) (Choristoneura fumiferana)
Sequence (O77255 219-541): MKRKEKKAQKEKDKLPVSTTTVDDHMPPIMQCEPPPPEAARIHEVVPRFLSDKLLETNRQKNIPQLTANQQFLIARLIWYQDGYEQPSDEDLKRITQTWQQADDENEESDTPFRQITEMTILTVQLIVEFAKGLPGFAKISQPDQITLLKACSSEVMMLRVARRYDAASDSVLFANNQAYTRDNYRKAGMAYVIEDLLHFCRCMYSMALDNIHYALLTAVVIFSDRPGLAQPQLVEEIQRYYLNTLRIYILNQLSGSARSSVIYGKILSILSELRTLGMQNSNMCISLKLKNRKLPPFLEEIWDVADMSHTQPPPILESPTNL
Sequence (P28702 1-533 partner): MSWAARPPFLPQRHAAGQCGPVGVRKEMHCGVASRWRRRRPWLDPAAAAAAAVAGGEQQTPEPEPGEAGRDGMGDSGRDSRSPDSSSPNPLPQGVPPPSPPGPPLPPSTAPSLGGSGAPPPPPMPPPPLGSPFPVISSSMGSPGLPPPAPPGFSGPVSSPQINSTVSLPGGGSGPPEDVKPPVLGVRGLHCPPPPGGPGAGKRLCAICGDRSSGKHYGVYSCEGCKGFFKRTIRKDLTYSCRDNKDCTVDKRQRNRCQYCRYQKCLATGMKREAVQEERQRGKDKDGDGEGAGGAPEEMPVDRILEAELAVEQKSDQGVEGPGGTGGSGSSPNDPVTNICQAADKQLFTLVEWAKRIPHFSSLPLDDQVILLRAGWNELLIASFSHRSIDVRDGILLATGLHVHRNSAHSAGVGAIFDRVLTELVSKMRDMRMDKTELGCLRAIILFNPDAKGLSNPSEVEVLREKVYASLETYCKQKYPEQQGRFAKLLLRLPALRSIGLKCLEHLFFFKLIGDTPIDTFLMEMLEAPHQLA
Assay: Two-hybrid gene switch assay, luciferase reporter, wild-type CfEcR, mouse NIH3T3 cells
Answer each item with its documented EC50.

Would you mind telling me what EC50 value was observed for CC(C(O)CCC(C)(C)O)C1CCC2(O)C3=CC(=O)C4CC(O)C(O)CC4(C)C3CCC12C (stereo not drawn) [Compound 24] ?
> 33 µM

State the recorded EC50 for this entry: CCCCCCCCCC(=O)OC1CC2(C)C(C(C)(O)C(O)CCC(C)(C)O)CCC2(O)C2=CC(=O)C3CC(O)C(O)CC3(C)C21 (stereo not drawn) [turkesterone-11a-decanoate]
> 33 µM

Requested read-out: EC50. Entry: CC(C)CC[C@@H](O)[C@](C)(O)[C@H]1CC[C@@]2(O)C3=CC(=O)[C@@H]4C[C@@H](O)[C@@H](O)C[C@]4(C)[C@H]3CC[C@]12C [PoA, ponasterone A, reference compound]
8.42 µM
